The measurements presented in this section are drawn from PubChem BioAssay AID2060345.

Tested on: MALME-3M multicell spheroids, viability
Assay: Anticancer human tumor MALME-3M cell line growth inhibition [TAK];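 further: spheroids exposed to drugs for seven days before readout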;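 on viability, T/C: 100% = DMSO vehicle control viability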
Details: second compound 0.949 µM; first compound 0.01 µM; stronger effect = lower value
Threshold 50%. viability, T/C below it: Met. viability, T/C at it or above: Not met.

{"compound": "COC1CC2CCC(C)C(O)(O2)C(=O)C(=O)N2CCCCC2C(=O)OC(C(C)CC2CCC(OCCO)C(OC)C2)CC(=O)C(C)C=C(C)C(O)C(OC)C(=O)C(C)CC(C)C=CC=CC=C1C (stereo not given) + CC(C)NCC(C(=O)N1CCN(c2ncnc3c2C(C)CC3O)CC1)c1ccc(Cl)cc1", "group-label": "Not met"}
{"compound": "CC(C)n1nc(-c2ccc3oc(N)nc3c2)c2c(N)ncnc21 + CC(C)NCC(C(=O)N1CCN(c2ncnc3c2C(C)CC3O)CC1)c1ccc(Cl)cc1", "group-label": "Met"}
{"compound": "COc1c(OCCCN2CCOCC2)ccc2c3n(c(=NC(=O)c4cnc(N)nc4)nc12)CCN3 + CC(C)NCC(C(=O)N1CCN(c2ncnc3c2C(C)CC3O)CC1)c1ccc(Cl)cc1", "group-label": "Not met"}
{"compound": "CC(C)CC(NC(=O)CNC(=O)c1cc(Cl)ccc1Cl)B1OC(=O)CC(CC(=O)O)(C(=O)O)O1 (stereo not given) + CC(C)NCC(C(=O)N1CCN(c2ncnc3c2C(C)CC3O)CC1)c1ccc(Cl)cc1", "group-label": "Not met"}
{"compound": "CC(C)CC(NC(=O)C(Cc1ccccc1)NC(=O)c1cnccn1)B(O)O (stereo not given) + CC(C)NCC(C(=O)N1CCN(c2ncnc3c2C(C)CC3O)CC1)c1ccc(Cl)cc1", "group-label": "Met"}

----------
Test system: MALME-3M multicell spheroids, viability
Test: Anticancer human tumor MALME-3M cell line growth inhibition [TAK];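 further: spheroids exposed to drugs for seven days before readout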;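 on viability, T/C: 100% = DMSO vehicle control viability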
Conditions: second compound 0.3 µM; first compound 0.00316 µM; stronger effect = lower value
Reported viability, T/C by item:
metric-name: viability, T/C (%)

{"molecule": "CC(C)n1nc(-c2ccc3oc(N)nc3c2)c2c(N)ncnc21 + CC(C)NCC(C(=O)N1CCN(c2ncnc3c2C(C)CC3O)CC1)c1ccc(Cl)cc1", "metric-name": "viability, T/C", "result-number": 69.3}
{"molecule": "COC1CC2CCC(C)C(O)(O2)C(=O)C(=O)N2CCCCC2C(=O)OC(C(C)CC2CCC(OCCO)C(OC)C2)CC(=O)C(C)C=C(C)C(O)C(OC)C(=O)C(C)CC(C)C=CC=CC=C1C (stereo not given) + CC(C)NCC(C(=O)N1CCN(c2ncnc3c2C(C)CC3O)CC1)c1ccc(Cl)cc1", "metric-name": "viability, T/C", "result-number": 64.3}
{"molecule": "CC(C)CC(NC(=O)C(Cc1ccccc1)NC(=O)c1cnccn1)B(O)O (stereo not given) + CC(C)NCC(C(=O)N1CCN(c2ncnc3c2C(C)CC3O)CC1)c1ccc(Cl)cc1", "metric-name": "viability, T/C", "result-number": 33.9}
{"molecule": "COc1c(OCCCN2CCOCC2)ccc2c3n(c(=NC(=O)c4cnc(N)nc4)nc12)CCN3 + CC(C)NCC(C(=O)N1CCN(c2ncnc3c2C(C)CC3O)CC1)c1ccc(Cl)cc1", "metric-name": "viability, T/C", "result-number": 109}
{"molecule": "CC(C)CC(NC(=O)CNC(=O)c1cc(Cl)ccc1Cl)B1OC(=O)CC(CC(=O)O)(C(=O)O)O1 (stereo not given) + CC(C)NCC(C(=O)N1CCN(c2ncnc3c2C(C)CC3O)CC1)c1ccc(Cl)cc1", "metric-name": "viability, T/C", "result-number": 90.6}

----------
# maps each entry to its IC50
Test system: MALME-3M multicell spheroids, viability
Experiment: Anticancer human tumor MALME-3M cell line growth inhibition [TAK];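 further: spheroids exposed to drugs for seven days before readout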
Settings: curve of first compound; second compound 9.49 µM

{"compound": "CCCS(=O)(=O)Nc1ccc(F)c(C(=O)c2c[nH]c3ncc(-c4ccc(Cl)cc4)cc23)c1F + CC(C)NCC(C(=O)N1CCN(c2ncnc3c2C(C)CC3O)CC1)c1ccc(Cl)cc1", "system": "MALME-3M multicell spheroids, viability", "cmp": "<", "IC50 (nM)": 316}
{"compound": "CC(C)n1nc(-c2ccc3oc(N)nc3c2)c2c(N)ncnc21 + CC(C)NCC(C(=O)N1CCN(c2ncnc3c2C(C)CC3O)CC1)c1ccc(Cl)cc1", "system": "MALME-3M multicell spheroids, viability", "cmp": "=", "IC50 (nM)": 1.81}
{"compound": "CC(=O)Nc1cccc(-n2c(=O)n(C3CC3)c(=O)c3c(Nc4ccc(I)cc4F)n(C)c(=O)c(C)c32)c1 + CC(C)NCC(C(=O)N1CCN(c2ncnc3c2C(C)CC3O)CC1)c1ccc(Cl)cc1", "system": "MALME-3M multicell spheroids, viability", "cmp": "=", "IC50 (nM)": 0.181}

----------
Test system: MALME-3M multicell spheroids, viability
Assay: Anticancer human tumor MALME-3M cell line growth inhibition [TAK];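 further: spheroids exposed to drugs for seven days before readout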;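 on viability, T/C: 100% = DMSO vehicle control viability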
Settings: second compound 0.949 µM; first compound 0.1 µM; stronger effect = lower value
Hi! Just check whether viability, T/C is below 40%. Below gives Y, equal or above gives N.

{"molecule": "Cc1nc(NC(=O)N2CCCC2C(N)=O)sc1-c1ccnc(C(C)(C)C(F)(F)F)c1 (stereo unspecified) + CC(C)NCC(C(=O)N1CCN(c2ncnc3c2C(C)CC3O)CC1)c1ccc(Cl)cc1", "system": "MALME-3M multicell spheroids, viability", "group-label": "N"}
{"molecule": "COc1c(OCCCN2CCOCC2)ccc2c3n(c(=NC(=O)c4cnc(N)nc4)nc12)CCN3 + CC(C)NCC(C(=O)N1CCN(c2ncnc3c2C(C)CC3O)CC1)c1ccc(Cl)cc1", "system": "MALME-3M multicell spheroids, viability", "group-label": "N"}
{"molecule": "CC(C)CC(NC(=O)CNC(=O)c1cc(Cl)ccc1Cl)B1OC(=O)CC(CC(=O)O)(C(=O)O)O1 (stereo unspecified) + CC(C)NCC(C(=O)N1CCN(c2ncnc3c2C(C)CC3O)CC1)c1ccc(Cl)cc1", "system": "MALME-3M multicell spheroids, viability", "group-label": "Y"}
{"molecule": "CC(C)n1nc(-c2ccc3oc(N)nc3c2)c2c(N)ncnc21 + CC(C)NCC(C(=O)N1CCN(c2ncnc3c2C(C)CC3O)CC1)c1ccc(Cl)cc1", "system": "MALME-3M multicell spheroids, viability", "group-label": "Y"}
{"molecule": "CC(C)(C)c1nc(-c2cccc(NS(=O)(=O)c3c(F)cccc3F)c2F)c(-c2ccnc(N)n2)s1 + CC(C)NCC(C(=O)N1CCN(c2ncnc3c2C(C)CC3O)CC1)c1ccc(Cl)cc1", "system": "MALME-3M multicell spheroids, viability", "group-label": "Y"}
{"molecule": "COC1CC2CCC(C)C(O)(O2)C(=O)C(=O)N2CCCCC2C(=O)OC(C(C)CC2CCC(OCCO)C(OC)C2)CC(=O)C(C)C=C(C)C(O)C(OC)C(=O)C(C)CC(C)C=CC=CC=C1C (stereo unspecified) + CC(C)NCC(C(=O)N1CCN(c2ncnc3c2C(C)CC3O)CC1)c1ccc(Cl)cc1", "system": "MALME-3M multicell spheroids, viability", "group-label": "N"}

----------
Tested on: MALME-3M multicell spheroids, viability
Assay: Anticancer human tumor MALME-3M cell line growth inhibition [TAK];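 further: spheroids exposed to drugs for seven days before readout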;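 on viability, T/C: 100% = DMSO vehicle control viability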
Conditions: second compound 9.49 µM; first compound 1 µM; stronger effect = lower value
As shown below, each of these compounds has a reported viability, T/C value.
metric-name: viability, T/C

{"compound": "CCCS(=O)(=O)Nc1ccc(F)c(C(=O)c2c[nH]c3ncc(-c4ccc(Cl)cc4)cc23)c1F + CC(C)NCC(C(=O)N1CCN(c2ncnc3c2C(C)CC3O)CC1)c1ccc(Cl)cc1", "system": "MALME-3M multicell spheroids, viability", "metric-name": "viability, T/C", "result": "20.6%"}
{"compound": "Cc1nc(NC(=O)N2CCCC2C(N)=O)sc1-c1ccnc(C(C)(C)C(F)(F)F)c1 (centres undefined) + CC(C)NCC(C(=O)N1CCN(c2ncnc3c2C(C)CC3O)CC1)c1ccc(Cl)cc1", "system": "MALME-3M multicell spheroids, viability", "metric-name": "viability, T/C", "result": "67.5%"}
{"compound": "CC(C)(C)c1nc(-c2cccc(NS(=O)(=O)c3c(F)cccc3F)c2F)c(-c2ccnc(N)n2)s1 + CC(C)NCC(C(=O)N1CCN(c2ncnc3c2C(C)CC3O)CC1)c1ccc(Cl)cc1", "system": "MALME-3M multicell spheroids, viability", "metric-name": "viability, T/C", "result": "15.6%"}
{"compound": "COc1c(OCCCN2CCOCC2)ccc2c3n(c(=NC(=O)c4cnc(N)nc4)nc12)CCN3 + CC(C)NCC(C(=O)N1CCN(c2ncnc3c2C(C)CC3O)CC1)c1ccc(Cl)cc1", "system": "MALME-3M multicell spheroids, viability", "metric-name": "viability, T/C", "result": "11.8%"}
